method_summary: qHTS assay to identify small molecule antagonists of the farnesoid-X-receptor (FXR) signaling pathway - cell viability counter screen (AID 743221); further: nearly all actives have a fitted effect of over 50% in size
cond: FXR-bla HEK293T viability, CellTiter-Glo luminescence, 16 h; series mostly up to 62.6 µM
Inconclusive results are not listed. Active and inactive are the calls of the source. The call rests on the fitted dose curve; in most records, active means well fitted cell-killing curve with a large enough effect in the repeat runs (not every such curve was filed as active); inconclusive means weak or mixed curves, or effect the other way; inactive means no such curve, though single readings can be large or run the other way.
Possible outcomes: 1 = active, -1 = inactive

CN1C(C(=O)Nc2ccccn2)=C(O)c2sccc2S1(=O)=O :: -1
COc1ncnc(NS(=O)(=O)c2ccc(N)cc2)c1OC :: -1
C=C1CCC2CC1C2(C)C (stereo unspecified) :: -1
CC(C)=CCC1C(=O)N(c2ccccc2)N(c2ccccc2)C1=O :: -1
OC[C@H]1O[C@@H](n2cnc3c(=S)nc[nH]c32)[C@H](O)[C@@H]1O :: 1
O=C1c2ccccc2C(=O)C1c1nc2ccccc2c(Br)c1O :: -1
